- TESTED ON: wild-type EGFR expressed on cells (human), P00533
- ASSAY SUMMARY: flow cytometry, F98-EGFRwt cells
- MEASUREMENT SETUP: remark: other sources report otherwise
QUANTITY MEASURED: % positive
Could you write the number and then its unit?

[ask] % positive lookup needed for 49B11 (antibody, V domains shown) VH: QVTLKESGPVLVKPTETLTLTCTVSGFSLSNVRMGVSWIRQPPGKALEWFAHIFSSDEKSIRRSLRSRLTLSKDTSKSQVVLTMTNMDPVDTATYYCARDSSNYEGYFDYWGQGTLVTVSS VL: EMEVTQSPATLSVSPGERATLSCRASQNIGSDLAWYQQQSGQAPRLLISGASTRATGVPTRFSGSGSGTDFTLTITSLQSEDFAVYYCQQYNDWPFTFGPGTKVDIK , thanks.
[reply] 1.3%
